# assay.method.text: acute toxicity, oral, mice
# Set-up: species or system male and female mice
# recorded.conditions: mouse, in vivo, observed 14 days
result.type: LD50 at 336 h (mg/kg)
Please respond with the number in mg/kg and leave the unit unwritten.

Ask: Query: LD50 at 336 h; subject: C=CCSc1nc2ccc(Cc3ccccc3)cc2[nH]1
Result: 960

###

# Test system: rats fed with cholesterol
# assay.method.text: in vivo antihyperlipoproteinemic test, rats fed cholesterol fodder for 7 days (Table 1)
# Parameters: species or system Whistar hannover male rats
# recorded.conditions: po; rat; serum; 30.0 mg/kg p.o.; read-out: triglyceride change
Counter-ions that a name gives are not always drawn.
// values below are reported change in vivo at 30 mg/kg
Please respond with the number in % and leave the unit unwritten.

// below: answered compounds
{"columns": ["compound", "observed.measurement"],
 "data": [
  ["CC(=O)CCn1c(=S)[nH]c2cc(Cc3ccccc3)ccc21 [compound 0200427]", -63.5],
  ["CC(=O)CCn1c(=S)n(CCC(C)=O)c2cc(Cc3ccccc3)ccc21 [compound 0200058]", 1],
  ["OCCCSc1nc2ccc(Cc3ccccc3)cc2[nH]1 [compound 0202367]", -19],
  ["Br.C=CCSc1nc2ccc(Cc3ccccc3)cc2[nH]1 [compound 0202154, hydrobromide]", -30]
]}

Ask: Query: change in vivo at 30 mg/kg; subject: CC(=O)CSc1nc2ccc(Cc3ccccc3)cc2[nH]1 [compound 0202002]
Result: 27.8

Ask: Please do the same for OCCSc1nc2ccc(Cc3ccccc3)cc2[nH]1 [compound 0202377] as well.
Result: 58

Ask: Please do the same for O=C(O)CC(Sc1nc2ccc(C(=O)c3ccccc3)cc2[nH]1)C(=O)O (stereo not drawn) [compound 0200086] as well.
Result: -24.9

Ask: Please do the same for O=C(O)CC(Sc1nc2ccc(Cc3ccccc3)cc2[nH]1)C(=O)O (stereo not drawn) [compound 0200131] as well.
Result: -18.8

Ask: Please do the same for CCOC(=O)CC(=O)CSc1nc2ccc(Cc3ccccc3)cc2[nH]1 [compound 0203232, hydrochloride] as well.
Result: 29.3

Reference source: patent US4814329A
